The reported measurements were obtained from patent US20220347175A1.

# study system: human Nav1.1 (Homo sapiens, UniProt P35498)
# Construct: host or cells: HEK293
# measurement description: Amplification of Nav1.1-derived voltage-dependent sodium current (Nav1.1 current), cell line stably expressing human Nav1.1, automated patch clamp
# Format: cell-based
# run conditions: 10 μmol/L compound; change of the area under the curve of Nav1.1 current (Test Result 1); read-out: Nav1.1 current amplification rate (%)
experimental endpoint: activation at 10 µM (%)

Field: example entries. Status: answers known.
>>> assay_value("O=C(Cn1nc(N2CCC3(CCC3)C2)ccc1=O)Nc1ccc2c(c1)OCC2 [Example 172]")
117
>>> assay_value("Cc1c(N2CCC3(CCCC3)C2)nn(CC(=O)Nc2ccc3ocnc3c2)c(=O)c1C [Example 165]")
146
>>> assay_value("O=C(Cn1nc(N2CCC3C(C2)C3(F)F)ccc1=O)Nc1ccc2ocnc2c1 (centres unmarked) [Example 161]")
21
>>> assay_value("Cc1cnc2cc(NC(=O)Cn3nc(N4CCC(C)CC4)ccc3=O)ccn12 [Example 232]")
37
>>> assay_value("CN(C)c1cc(N2CCC(C)(C)CC2)nn(CC(=O)Nc2ccn3ccnc3c2)c1=O [Example 211]")
212

[A] CC1CCN(c2ccc(=O)n(CC(=O)N3CCc4cc(N5CCN(C)CC5)ccc43)n2)CC1 [Example 220]
[B] O=C(Cn1nc(N2CCC3(CCC3)CC2)ccc1=O)Nc1ccc2c(c1)COC2 [Example 190]
Out of A and B , name the one with the higher activation at 10 µM. # respond with the chosen item's label
B

* * *

# study system: human Nav1.1 (Homo sapiens)
# Construct: host or cells: HEK293
# measurement description: Amplification of Nav1.1-derived voltage-dependent sodium current (Nav1.1 current), cell line stably expressing human Nav1.1, automated patch clamp
# Type: cell-based
# run conditions: compound 1 μmol/L; HEK293 stably expressing human Nav1.1; read-out: Nav1.1 current amplification rate (%)
experimental endpoint: activation at 1 µM (%)

Field: example entries. Status: answers known.
>>> assay_value("Cc1ncc(-c2cccc3c2CCN3C(=O)Cn2nc(C3=CCCCC3)ccc2=O)cn1 [Example 518]")
344
>>> assay_value("O=C(Cn1nc(C2=CCCCC2)ccc1=O)N1CCc2c(C3=CCOCC3)cccc21 [Example 528]")
198
>>> assay_value("CC1(C)CCN(c2ccc(=O)n(CC(=O)N3CCc4c(-c5ccnnc5)cccc43)n2)CC1 [Example 235]")
198
>>> assay_value("CC1CC=C(c2ccc(=O)n(CC(=O)Nc3ccc4ocnc4c3)n2)CC1 (stereo not drawn) [Example 531]")
183
>>> assay_value("C[C@H]1CC=C(c2ccc(=O)n(CC(=O)Nc3ccc4ncnn4c3)n2)CC1 [Example 540]")
112

[a] CC1(C)CC=C(c2ccc(=O)n(CC(=O)Nc3ccc4ncnn4c3)n2)CC1 [Example 428]
[b] Cc1cc(=O)n(CC(=O)Nc2ccn3ncnc3c2)nc1C1=CCC(C)CC1 (stereo not drawn) [Example 502]
Out of a and b , name the one with the higher activation at 1 µM. # respond with the chosen item's label
a

[P] C[C@@H]1CC=C(c2ccc(=O)n(CC(=O)Nc3ccn4ncnc4c3)n2)CC1 [Example 537]
[Q] O=C(Cn1nc(C2=CCC(F)(F)CC2)ccc1=O)N1CCc2c(-c3ccnnc3)cccc21 [Example 527]
Between item P and item Q , which reported activation at 1 µM is smaller? # respond with the chosen item's label
P
(P: 99%, Q: 324%)
